From: ChEMBL document CHEMBL1201862

# Tested on: SK-MEL-28
# ASSAY: NCI tumour cell line growth inhibition, 48 h
Active and inactive are the calls of the source. Rule as the data show it: active = GI50 up to about 1.1 µM and inactive = higher.
Exercise: state measured GI50 for each of the molecules provided.

[in] I have this molecule here, `C=C[Si](C)(C)COC(=O)/C(C#N)=C/C=C/c1ccccc1` , and I need its recorded GI50.
[out] > 100 µM (inactive)

[in] Moving on to the next molecule: CC12CC(=O)NN=C1c1ccccc1C2 (stereo not given)
[out] > 100 µM (inactive)

[in] Moving on to the next molecule: `C=C1[C@@H](C)[C@H]2[C@H](Cc3ccccc3)NC(=O)[C@]23OC(=O)/C=C/[C@H](O)CCC[C@@H](C)C/C=C/[C@H]3[C@@H]1O`
[out] 12.8 µM (inactive)

[in] Moving on to the next molecule: `COc1ccc(NC(=O)/C(=C/c2ccccc2)C(C)=O)cc1`
[out] 12.9 µM (inactive)

[in] Moving on to the next molecule: `O=C(CCC1OCCO1)Nc1cc(NCc2ccccc2)ccc1OCc1ccccc1`
[out] 64.7 µM (inactive)

[in] Moving on to the next molecule: `CN/C(=N/C#N)NCc1ccccc1`
[out] > 100 µM (inactive)

[in] Moving on to the next molecule: CCC1CCC2c3c([nH]c4ccc(C)cc34)C3C(=O)N(N(C)C)C(=O)C3C2C1 (stereo not given)
[out] > 83.4 µM (inactive)

[in] Moving on to the next molecule: `C=C(C[N+](C)(C)C)N/N=C/c1oc(-c2ccc(OC)c(OC)c2)c(-c2ccc(OC)c(OC)c2)c1[N+](=O)[O-]`
[out] 18.3 µM (inactive)

[in] Moving on to the next molecule: COC(=O)CP1(=O)OC2C(C3CCC2(C)C3(C)C)N1c1cc(C(F)(F)F)cc(C(F)(F)F)c1 (stereo not given)
[out] 42.9 µM (inactive)

[in] Moving on to the next molecule: `CCCN(CCC)C(=O)Cc1c2n(c3ccccc13)Cc1ccccc1-2`
[out] > 100 µM (inactive)

====

Exercise: state measured GI50 for each of the molecules provided.
# Test system: SW-620
# ASSAY: NCI tumour cell line growth inhibition, 48 h
The source made the active and inactive calls. Cut-off read from the data, not from the text of the source: active = GI50 up to about 1.1 µM and inactive = higher. Where a SMILES comes first, the peptide text is derived from it. The star is where a group is joined. X33 = O=C(c1ccc(-c2ccc(Cl)cc2Cl)o1)*

[in] I have this molecule here, C=C1C(OC(C)=O)CC(OC(C)=O)C2(C)C(OC(C)=O)C(OC(C)=O)C3=C(C)C(OC(=O)/C=C/c4ccccc4)CC(C(OC(C)=O)C12)C3(C)C (stereo not given) , and I need its recorded GI50.
[out] > 100 µM (inactive)

[in] Moving on to the next molecule: COC(=O)CN(CC(=O)NCCNC(=O)OC(C)(C)C)C1CCCCC1N(CC(=O)OC)CC(=O)OC (stereo not given)
[out] > 100 µM (inactive)

[in] Moving on to the next molecule: Cc1cc(=O)oc2c(CNC(C)C(=O)O)c(O)ccc12 (stereo not given)
[out] > 100 µM (inactive)

[in] Moving on to the next molecule: `Cc1noc2c1C(=O)CCC2`
[out] > 100 µM (inactive)

[in] Moving on to the next molecule: COc1cc2c(cc1OC)C(N)CC2=O (stereo not given)
[out] > 100 µM (inactive)

[in] Moving on to the next molecule: NC(=S)N/N=C(/CCN1CCCC1)CC(C1=C(O)C2=CCCCC2OC1=O)c1ccccc1 (stereo not given)
[out] 37.8 µM (inactive)

[in] Moving on to the next molecule: `CC(C)(C)c1cc(C(C)(C)C)c2c(c1O)OC(=O)CS2`
[out] 6.52 µM (inactive)

[in] Moving on to the next molecule: `NC(=O)c1c(-c2ccccc2)c(-c2ccccc2)cc2c(=O)c3ccccc3[nH]c12`
[out] 37.1 µM (inactive)

[in] Moving on to the next molecule: `Cc1cc(C)c(C#N)c(SC(=S)NC(=O)c2ccc(Cl)cc2)n1`
[out] > 100 µM (inactive)

[in] Moving on to the next molecule: C1CCC(CC2CCC(NC3=NCCO3)CC2)CC1 (stereo not given)
[out] 21.3 µM (inactive)

[in] Moving on to the next molecule: `CCN(CC)C(=O)Cn1c2ccccc2[n+]2cc(N)ccc12`
[out] > 100 µM (inactive)

[in] Moving on to the next molecule: Cc1cn(C2CC(O)C(COC(=O)NCCC(F)(F)C(F)(F)C(F)(F)C(F)(F)F)O2)c(=O)[nH]c1=O (stereo not given)
[out] > 100 µM (inactive)

[in] Moving on to the next molecule: `CC(=O)/C=C\C(=O)NNS(=O)(=O)c1ccc(C)cc1`
[out] > 100 µM (inactive)

[in] Moving on to the next molecule: `c1ccc2cc(-c3cc(-c4cc(-c5ccc6ccccc6c5)on4)no3)ccc2c1`
[out] > 100 µM (inactive)

[in] Moving on to the next molecule: `COC(=O)C1=C(C(=O)OC)SC(=C2SCSC3=C2SC(C(=O)OC)=C(C(=O)OC)C32SC3=C(CCCC3)S2)S1`
[out] > 100 µM (inactive)

[in] Moving on to the next molecule: CCC(C)C(NC(=O)CNC(=O)C(Cc1ccccc1)NC(=O)C1CCCN1C(=O)c1ccc(-c2ccc(Cl)cc2Cl)o1)C(=O)OC (stereo not given) (X33-PFGI-OMe; configuration not given here)
[out] 23 µM (inactive)

[in] Moving on to the next molecule: `Brc1ccc2c(-c3csc(-c4c[nH]c5cc(Br)ccc45)n3)c[nH]c2c1`
[out] 16 µM (inactive)

[in] Moving on to the next molecule: `Cc1nc(N)nc(N)c1N1CCN(Cc2ccccc2)CC1`
[out] 38.9 µM (inactive)

[in] Moving on to the next molecule: CC(NC(=O)c1ccc(NP(=O)(OCc2ccc([N+](=O)[O-])o2)N(C)CCCCCl)cc1)c1ccc(OCC2CCCCC2)c(C(N)=O)c1 (stereo not given)
[out] 28.4 µM (inactive)

[in] Moving on to the next molecule: `C[N+]1(C)C[C@@H](O)C[C@@H]1C(=O)[O-]`
[out] > 100 µM (inactive)

[in] Moving on to the next molecule: `Nn1nnc2ccccc21`
[out] > 100 µM (inactive)

[in] Moving on to the next molecule: `Nc1ccc(S(=O)(=O)Nc2nc3ccccc3nc2N2CCCCCC2)cc1`
[out] 20 µM (inactive)

[in] Moving on to the next molecule: `O=[N+]([O-])c1ccc2sc(/C=N/c3ccccn3)cc2c1`
[out] 21.7 µM (inactive)

[in] Moving on to the next molecule: COC(=O)CP1(=O)OC2C(C3CCC2(C)C3(C)C)N1c1cc(C(F)(F)F)cc(C(F)(F)F)c1 (stereo not given)
[out] 24.1 µM (inactive)

[in] Moving on to the next molecule: `CNC(=O)OCc1cnc([N+](=O)[O-])n1C`
[out] > 100 µM (inactive)

[in] Moving on to the next molecule: `Cn1c(=O)sc2cc(C(=S)N3CCC(Cc4ccccc4)CC3)ccc21`
[out] > 100 µM (inactive)

[in] Moving on to the next molecule: `COc1cc2c(cc1OC)CC(=O)c1cc(OC)c(OC)cc1/C=C\2`
[out] 6.37 µM (inactive)

[in] Moving on to the next molecule: CCN1CCC(O)(c2ccc([N+](=O)[O-])cc2)C(C(=O)c2ccc([N+](=O)[O-])cc2)C1 (stereo not given)
[out] 25.1 µM (inactive)

[in] Moving on to the next molecule: COC(=O)CCC1=NOC(CC2CC(CCC(=O)OC)=NO2)C1 (stereo not given)
[out] > 100 µM (inactive)

[in] Moving on to the next molecule: `COc1ccc(Cc2ccc3nc(O)cc(C)c3c2)cc1S(=O)(=O)O`
[out] > 100 µM (inactive)

[in] Moving on to the next molecule: `Cc1ccc(S(=O)(=O)Nc2cccc(C)c2C)cc1`
[out] 86.7 µM (inactive)

[in] Moving on to the next molecule: `COc1ccc([N+]2=NC(c3ccc([N+](=O)[O-])cc3)=NN(c3ccccc3)C2)cc1`
[out] 68.4 µM (inactive)

[in] Moving on to the next molecule: `CC(=O)O[C@H]1CN(S(=O)(=O)c2ccc(C)cc2)C[C@@H]1C1CCCCC1`
[out] 26.1 µM (inactive)

[in] Moving on to the next molecule: COc1ccc(C(=O)N2CCc3c([nH]c4ccccc34)C2C(=O)O)o1 (stereo not given)
[out] > 10 µM (inactive)

[in] Moving on to the next molecule: `Cc1cc(NS(=O)(=O)c2ccc(NC(=O)c3cccc4c(NNc5ccc(S(N)(=O)=O)cc5)c5ccccc5nc34)cc2)no1`
[out] 37.2 µM (inactive)
